Hi there, I'd appreciate the recorded screen value for every entry that follows.
B1: ICA1L peptide 451-466 (Islet cell autoantigen 1-like protein), 16-mer library wild type / NSP16 (ORF1ab Nsp16, residues 6799-7088) (parent)
chain 1: QDMSAWFNLFADLDPL
chain 2: SSQAWQPGVAMPNLYKMQRMLLEKCDLQNYGDSATLPKGIMMNVAKYTQLCQYLNTLTLAVPYNMRVIHFGAGSDKGVAPGTAVLRQWLPTGTLLVDSDLNDFVSDADSTLIGDCATVHTANKWDLIISDMYDPKTKNVTKENDSKEGFFTYICGFIQQKLALGGSVAIKITEHSWNADLYKLMGHFAWWTAFVTNVNASSSEAFLIGCNYLGKPREQIDGYVMHANYIFWRNTNPIQLSSYSLFDMSKFPLKLRGTAVMSLKEGQINDMILSLLSKGRLIIRENNRVVI

Variants of: B1
condition set: with NSP16 (ORF1ab Nsp16, residues 6799-7088); bait immobilised on MaxiSorp plates (10 µg), library pre-cleared on GST, 2 h binding at 4 °C, five washes; one round per day, days 1-4; value from days 2 and 3; keep out of graded; scale: average fractional NGS count over selection days 2 and 3
Lab note: jot the number down without any unit.

Query: Fill blank: measured screen value of the variant chain 1 F7V is ____.
Reply: 5.76e-05

Query: Likewise for chain 1 L16A ?
Reply: 6.04e-05

Query: Likewise for chain 1 D12G ?
Reply: 3.31e-05

Query: Likewise for chain 1 W6P ?
Reply: 0

Query: Likewise for chain 1 N8D ?
Reply: 6.98e-05

Query: Likewise for chain 1 P15E ?
Reply: 0

Query: Likewise for chain 1 F7S ?
Reply: 3.52e-05

Query: Likewise for chain 1 D14R ?
Reply: 8.06e-05

Query: Likewise for chain 1 S4M ?
Reply: 6.83e-05

Query: Likewise for chain 1 P15L ?
Reply: 3.43e-05

Query: Likewise for chain 1 A11W ?
Reply: 0

Query: Likewise for chain 1 D14F ?
Reply: 1.57e-05

Query: Likewise for chain 1 A11S ?
Reply: 2.43e-05

Query: Likewise for chain 1 D2E ?
Reply: 0

Query: Likewise for chain 1 W6V ?
Reply: 0

Query: Likewise for chain 1 L16F ?
Reply: 2.69e-05

Query: Likewise for chain 1 M3A ?
Reply: 1.55e-05

Query: Likewise for chain 1 L9T ?
Reply: 3.99e-05

Query: Likewise for chain 1 A5H ?
Reply: 2.76e-05

Query: Likewise for chain 1 F7R ?
Reply: 0

Query: Likewise for chain 1 D14G ?
Reply: 1.57e-05

Query: Likewise for chain 1 N8Q ?
Reply: 5.42e-05

Query: Likewise for chain 1 D14L ?
Reply: 6.11e-05

Query: Likewise for chain 1 A5S ?
Reply: 3.33e-05

Query: Likewise for chain 1 D14S ?
Reply: 6.51e-05

Query: Likewise for chain 1 L16S ?
Reply: 5.17e-05

Query: Likewise for chain 1 D12P ?
Reply: 3.33e-05

Query: Likewise for chain 1 S4V ?
Reply: 0

Query: Likewise for chain 1 D14H ?
Reply: 0

Query: Likewise for chain 1 L16D ?
Reply: 3.18e-05

Query: Likewise for chain 1 D12N ?
Reply: 1.88e-05
